target-of-assay: zebrafish PXR (Danio rerio)
Sequence (A5WYG8 144-430): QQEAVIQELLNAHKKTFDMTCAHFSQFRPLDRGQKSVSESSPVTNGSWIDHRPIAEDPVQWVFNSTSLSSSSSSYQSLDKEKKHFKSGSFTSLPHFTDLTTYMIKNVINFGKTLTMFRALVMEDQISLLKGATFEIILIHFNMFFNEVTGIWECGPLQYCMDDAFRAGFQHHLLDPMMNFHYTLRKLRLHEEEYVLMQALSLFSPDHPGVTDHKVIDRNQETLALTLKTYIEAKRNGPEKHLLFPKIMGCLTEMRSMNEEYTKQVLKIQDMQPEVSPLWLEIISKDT
test-name: cell-based
pEC50: −log10 of the molar value.

[
  {
    "compound": "CC(C(=O)O)c1ccc(-c2ccccc2)c(F)c1 (stereo not shown)",
    "pEC50": 4.10
  },
  {
    "compound": "C[C@@]12C=CC[C@H]1[C@@H]1CC=C3C[C@@H](O)CC[C@]3(C)[C@H]1CC2",
    "pEC50": 5.60
  },
  {
    "compound": "C[C@@]12C=CC[C@H]1[C@@H]1CCC3=CC(=O)CC[C@]3(C)[C@H]1CC2",
    "pEC50": 5.96
  },
  {
    "compound": "CC(=O)[C@H]1CC[C@H]2[C@@H]3CC[C@@H]4CC(=O)CC[C@]4(C)[C@H]3CC[C@]12C",
    "pEC50": 6.08
  },
  {
    "compound": "C[C@]12CC[C@@H](O)C[C@@H]1CC[C@@H]1[C@@H]2CC[C@]2(C)C=CC[C@@H]12",
    "pEC50": 5.44
  },
  {
    "compound": "C[C@]12CC[C@@H]3c4cc(O)c(O)cc4CC[C@H]3[C@@H]1CCC2=O",
    "pEC50": 5.74
  }
]
